Assayed target: Phosphodiesterase 4 (Rattus norvegicus, UniProt P14270+P14646+P14644+P54748)
Assay method text: Displacement of [3H]rolipram from rat forebrain membrane
Type: tissue-based, Brain
Outcome measure: Ki

[[record]]
compound = "COc1ccc(C(C)Cn2ccnc2NC#N)cc1OC1Cc2ccccc2C1 (centres undefined)"
endpoint_result = "180 nM"


// Ki lookup, key: COc1ccc(C(C)Cn2ccnc2O)cc1OCC1CC1 (centres undefined)
3.5 nM

// Ki lookup, key: `COc1ccc([C@H](C)Cn2ccnc2NC#N)cc1OC1Cc2ccccc2C1`
220 nM

// Ki lookup, key: `COc1ccc([C@@H](C)Cn2cc[nH]/c2=N\C#N)cc1OC1Cc2ccccc2C1`
63 nM

All figures here come from ChEMBL document CHEMBL1135075.
